Data provenance: the kinase profiling compilation of Christmann-Franck et al. (2016)

test target: PRKD3 (human) (UniProt O94806)
Sequence (O94806 whole entry, looked up): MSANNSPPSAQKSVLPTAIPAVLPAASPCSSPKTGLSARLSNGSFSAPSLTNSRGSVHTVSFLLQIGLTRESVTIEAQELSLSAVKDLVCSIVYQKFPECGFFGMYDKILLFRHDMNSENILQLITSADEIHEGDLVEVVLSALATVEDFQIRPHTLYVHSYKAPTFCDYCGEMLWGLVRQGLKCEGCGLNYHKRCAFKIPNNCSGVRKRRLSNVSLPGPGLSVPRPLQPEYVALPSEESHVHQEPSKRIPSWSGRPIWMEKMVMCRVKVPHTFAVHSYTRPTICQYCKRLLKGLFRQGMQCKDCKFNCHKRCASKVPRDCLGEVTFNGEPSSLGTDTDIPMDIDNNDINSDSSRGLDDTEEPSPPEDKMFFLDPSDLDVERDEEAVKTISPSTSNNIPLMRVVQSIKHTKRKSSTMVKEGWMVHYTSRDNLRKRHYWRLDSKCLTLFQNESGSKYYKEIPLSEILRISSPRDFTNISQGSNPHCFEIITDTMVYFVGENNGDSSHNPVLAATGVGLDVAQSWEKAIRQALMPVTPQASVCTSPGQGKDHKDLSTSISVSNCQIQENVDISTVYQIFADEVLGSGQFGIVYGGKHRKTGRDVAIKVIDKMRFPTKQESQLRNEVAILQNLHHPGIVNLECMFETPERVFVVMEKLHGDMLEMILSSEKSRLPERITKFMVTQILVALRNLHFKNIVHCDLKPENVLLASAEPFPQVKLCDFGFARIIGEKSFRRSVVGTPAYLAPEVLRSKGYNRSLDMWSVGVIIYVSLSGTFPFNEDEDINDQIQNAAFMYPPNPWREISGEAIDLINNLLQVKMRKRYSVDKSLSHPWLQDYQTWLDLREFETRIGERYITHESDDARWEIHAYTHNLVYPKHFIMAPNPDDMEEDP
protocol notes: radiometric filter-binding kinase assay, Kinase HotSpot
conditions: compound 0.5 µM; ATP 10 µM
// values below are reported residual activity
Supply the numeric figure in %, leaving out any unit text.

Solved cases (4 shown):
{"columns": ["compound", "residual activity, %"],
 "data": [
  ["c1ccc(-c2cnc(Nc3ccc(OCCN4CCCC4)cc3)s2)cc1", 74],
  ["O=c1c2ccccc2[nH]c(=S)n1CCN1CCC(=C(c2ccc(F)cc2)c2ccc(F)cc2)CC1", 101],
  ["N#C/C(=C1/Nc2ccccc2S1)c1ccnc(NCCc2cccnc2)n1", 64.7],
  ["Cn1cc(/C=C2\\C(=O)Nc3ccc(S(N)(=O)=O)cc32)c2ccccc21", 76.4]
]}

Would you kindly look at the next entry?
Incoming: I would be grateful if you could share the reported residual activity for N#Cc1c(NC(=O)c2cccc3ccccc23)sc2c1CCCC2 .
Outgoing: 97.7
